- tested.target: PSMA-expressing C4-2 cells (Homo sapiens)
- Construct: PSMA-expressing C4-2 cells (ATCC, Cat. No. CRL-3314) were cultured in RPMI-1640; host or cells: C4-2 cells
- Sequence (Q04609 whole entry): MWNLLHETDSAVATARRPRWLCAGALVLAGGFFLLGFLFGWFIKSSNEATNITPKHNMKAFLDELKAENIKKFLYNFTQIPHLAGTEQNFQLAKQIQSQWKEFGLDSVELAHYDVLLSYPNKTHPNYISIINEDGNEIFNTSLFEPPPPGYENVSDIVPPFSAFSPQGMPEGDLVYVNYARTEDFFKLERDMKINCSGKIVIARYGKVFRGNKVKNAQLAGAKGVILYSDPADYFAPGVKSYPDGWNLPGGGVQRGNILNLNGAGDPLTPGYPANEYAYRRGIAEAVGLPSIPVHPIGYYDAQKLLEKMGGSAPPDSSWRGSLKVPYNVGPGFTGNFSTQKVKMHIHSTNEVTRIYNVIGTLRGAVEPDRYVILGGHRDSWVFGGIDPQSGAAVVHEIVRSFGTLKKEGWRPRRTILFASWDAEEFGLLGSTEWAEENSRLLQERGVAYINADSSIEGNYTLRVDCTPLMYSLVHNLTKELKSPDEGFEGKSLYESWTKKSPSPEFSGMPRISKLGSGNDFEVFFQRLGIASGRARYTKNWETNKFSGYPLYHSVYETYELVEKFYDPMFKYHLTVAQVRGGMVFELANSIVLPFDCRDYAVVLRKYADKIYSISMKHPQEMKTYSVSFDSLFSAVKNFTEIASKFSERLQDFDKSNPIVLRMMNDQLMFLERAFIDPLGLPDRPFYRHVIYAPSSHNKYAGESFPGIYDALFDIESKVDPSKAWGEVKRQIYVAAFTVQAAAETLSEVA
- run.description: FACS binding assay (competition with 50 nM PSM-0183)
- condition.set: FACS binding, PSMA-expressing C4-2 cells; pIC50 category; read-out: pIC50 [C4-2] CAT (converted)
Numbered stars: 1 amine (or outer) side, 2 acyl side, 3 side chain; on linkers, the order of the positions; unused ones are H or OH. Bridge positions count the residues as written; N and C are the ends. Square brackets hold non-standard residues; d marks the D form. Peptide text beside a SMILES is read from it. * marks the point of attachment. DOTA = O=C(O)CN1CCN(CC(=O)O)CCN(CC(=O)*)CCN(CC(=O)O)CC1; Phe(4-Cl) = N[C@@H](Cc1ccc(Cl)cc1)C(=O)O; Ethylenediamine = C(CN[*:2])N[*:1]; Cit = NC(=O)NCCC[C@H](N)C(=O)O; Tle = CC(C)(C)[C@H](N)C(=O)O; Nle = CCCC[C@H](N)C(=O)O; Aib = CC(C)(N)C(=O)O
Provide the recorded IC50 for the entries that follow.

Past entries and their recorded results:
compound="CC(=O)N[C@H](C(=O)NC(C)(C)C(=O)N[C@@H](Cc1ccccc1)C(=O)N[C@H]1CSSC[C@@H](C(=O)N[C@H](C(=O)N[C@H](C(=O)N[C@@H](CC(=O)O)C(N)=O)[C@@H](C)O)C(C)(C)C)NC(=O)[C@H](CC(N)=O)NC(=O)[C@H](C)NC(=O)[C@H](CCCNC(=N)N)NC(=O)[C@H](CCC(=O)O)NC1=O)[C@@H](C)O [PSM-0291] (Ac-T[Aib]FCERANC[Tle]TD-NH2; disulfide 4-9)" result="1260 to 3160 nM"
compound="CC(=O)N[C@H](C(=O)NC(C)(C)C(=O)N[C@@H](Cc1ccc(Cl)cc1)C(=O)N[C@H]1CSSC[C@@H](C(=O)N[C@H](C(=O)NCCNC(=O)CN2CCN(CC(=O)O)CCN(CC(=O)O)CCN(CC(=O)O)CC2)C(C)(C)C)NC(=O)[C@H](CC(N)=O)NC(=O)C(C)(C)NC(=O)[C@H](CCCNC(=N)N)NC(=O)[C@H](CCCCN)NC1=O)[C@@H](C)O [PSM-0269] (Ac-T[Aib][Phe(4-Cl)]CKR[Aib]NC[Tle]-{Ethylenediamine-DOTA}; disulfide 4-9)" result="< 200 nM"
compound="CC(=O)N[C@H](C(=O)NC(C)(C)C(=O)N[C@@H](Cc1ccc(Cl)cc1)C(=O)N[C@H]1CSSC[C@@H](C(=O)N[C@H](C(=O)N[C@H](C(N)=O)[C@@H](C)O)C(C)(C)C)NC(=O)[C@H](CO)NC(=O)C(C)(C)NC(=O)[C@H](CCCNC(N)=O)NC(=O)[C@H](CCCCN)NC1=O)[C@@H](C)O [PSM-0293] (Ac-T[Aib][Phe(4-Cl)]CK[Cit][Aib]SC[Tle]T-NH2; disulfide 4-9)" result="< 200 nM"

Form field - read-out: IC50; system: PSMA-expressing C4-2 cells (Homo sapiens); submitted item: CCCC[C@@H]1NC(=O)[C@H](CCCCN)NC(=O)[C@@H](NC(=O)[C@H](Cc2ccc(Cl)cc2)NC(=O)C(C)(C)NC(=O)[C@@H](NC(C)=O)[C@@H](C)O)CSSC[C@@H](C(=O)N[C@H](C(=O)N[C@H](C(N)=O)[C@@H](C)O)C(C)(C)C)NC(=O)[C@H](CC(N)=O)NC(=O)C(C)(C)NC1=O [PSM-0338] (Ac-T[Aib][Phe(4-Cl)]CK[Nle][Aib]NC[Tle]T-NH2; disulfide 4-9) < 200 nM
